// provenance: PubChem BioAssay AID1745844

- Test system: rodent lifetime carcinogenesis bioassay, tumor incidence TD50
- experiment description: carcinogenic potency in animals, long-term in vivo studies, CPDB compilation (AID 1745844)
- condition parameters: rat; strain Sprague-Dawley; males; in feed; site: urinary bladder; lesion: one or several types; types not named; dosed 117 weeks; study length 117 weeks
readout: TD50

In plain terms, "CCOc1ccc(NC(C)=O)cc1" has a documented TD50 of 1640 mg/kg/day

* * *

- System: rodent lifetime carcinogenesis bioassay, tumor incidence TD50
- experiment description: carcinogenic potency in animals, long-term in vivo studies, CPDB compilation (AID 1745844)
- condition parameters: rat; strain Fischer 344; males; by gavage; site: spleen; lesion: fibrosarcoma + osteosarcoma; dosed 103 weeks; study length 105 weeks
readout: TD50 (mg/kg/day)
Supply the numeric figure in mg/kg/day, leaving out any unit text.

So, "Nc1ccc(Cl)cc1" ? Its TD50 was 7.9
